target: KRas^G12A (Homo sapiens, UniProt P01116, G12A); construct: Biotinylated KRas (corresponding to amino acids 1-169, produced at Accelegan Inc.); biotin (biotinylated); purchased Accelegan Inc; experiment: KRas binding assay (TR-FRET tracer displacement), KRas G12A; settings: TR-FRET tracer displacement, KRas G12A
Sequence (P01116 1-169 isoform P01116-2 G12A): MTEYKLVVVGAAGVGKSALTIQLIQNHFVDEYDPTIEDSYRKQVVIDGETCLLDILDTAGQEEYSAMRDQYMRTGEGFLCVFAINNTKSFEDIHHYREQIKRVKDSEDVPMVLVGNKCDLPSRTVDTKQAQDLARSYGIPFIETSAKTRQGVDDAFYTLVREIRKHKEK
Attribute: IC50
Give the value in nM but do not write nM after it.

Qu. Look at this compound and give its reported IC50. Cc1cc2[nH]nnc2c(-c2ncc3c(N4CCCC5(C4)NC(=O)NC5=O)nc(OCC45CCCN4CCC5)nc3c2F)c1C (stereo not shown)
Ans. 1430

Qu. Next up: CN(C)C(=O)c1cc2n(n1)CCCN(c1nc(OC[C@@]34CCCN3C[C@H](F)C4)nc3c(F)c(-c4c5ccccc5cc5[nH]ncc45)ncc13)C2
Ans. 65

Qu. Ok, now Cc1cc2[nH]ncc2c(-c2ncc3c(N4CC5C(=O)NC(=O)C5C4)nc(OCC45CCCN4CCC5)nc3c2F)c1C (stereo not shown)
Ans. 242

Qu. Please do the same for Cc1c(Cl)cc2[nH]ncc2c1-c1ncc2c(N3CCC[C@]4(C3)NC(=O)NC4=O)nc(OCC34CCCN3CCC4)nc2c1F as well.
Ans. 1160

Qu. Consider next the compound O=S1(=O)CCC2(CCCN(c3nc(OC[C@@]45CCCN4C[C@H](F)C5)nc4c(F)c(-c5cc(O)cc6cccc(Cl)c56)ncc34)C2)N1 (stereo partly shown) in the same way.
Ans. 2

Qu. Also, O[C@@H]1C[C@H]2C[C@@H]1CN(c1nc(OC[C@@]34CCCN3C[C@H](F)C4)nc3c(F)c(-c4cccc5ccccc45)ncc13)C2 please.
Ans. 301

Qu. Next entry: Cc1cc2[nH]nnc2c(-c2ncc3c(N4CCOC[C@@](C)(O)C4)nc(OCC45CCCN4CCC5)nc3c2F)c1C
Ans. 4980

Qu. And then Cc1cc2[nH]c(=O)[nH]c2c(-c2ncc3c(N4CCC[C@@](C)(O)C4)nc(OCC45CCCN4CCC5)nc3c2F)c1C , what is it?
Ans. 1520

Qu. Repeat for the following compound: Cc1cc2[nH]ncc2c(-c2ncc3c(N4CCCC5(CNC(=O)N5)C4)nc(OCC45CCCN4CCC5)nc3c2F)c1C (stereo not shown)
Ans. 48

Qu. What do you get for Cc1cccc2c(-c3ncc4c(N5C[C@@H]6C[C@H](C5)[C@H](O)C6)nc(OC[C@@]56CCCN5C[C@H](F)C6)nc4c3F)cc(O)cc12 ?
Ans. 36

Qu. Try this compound too: Oc1cc(-c2ncc3c(N4C[C@@H]5C[C@H](C4)[C@H](O)C5)nc(OC[C@@]45CCCN4C[C@H](F)C5)nc3c2F)c2ccccc2c1Br
Ans. 716
